These entries and their values trace back to patent US6914045B2.

system: Escherichia coli; assay: in vitro antibacterial evaluation, MIC by broth dilution; format: cell-based; conditions: strain GC 4559, 18 hours at 35° C.
observable: MIC Escherichia coli (GC 4559)

Look over these answered cases.
compound: CC(c1ccccc1)C1NC(=O)CNC(=O)C(CO)NC(=O)C(C(O)C2CNC(=N)N2C2OC(CO)C(O)C(O)C2O)NC(=O)C(C(O)C2CNC(=N)N2)NC(=O)C(Cc2ccc(OC3OC(CO)C(OC4OC5COC(c6ccc7ccccc7c6)OC5C(O)C4O)C(O)C3O)cc2)NC1=O (stereo not shown)
observable: MIC Escherichia coli (GC 4559)
result: 32 µg/mL
--
compound: CC(c1ccccc1)C1NC(=O)CNC(=O)C(CO)NC(=O)C(C(O)C2CNC(=N)N2C2OC(CO)C(O)C(O)C2O)NC(=O)C(C(O)C2CNC(=N)N2)NC(=O)C(Cc2ccc(OC3OC(CO)C(OC4OC5COC(c6ccc(S(C)(=O)=O)cc6)OC5C(O)C4O)C(O)C3O)cc2)NC1=O (stereo not shown)
observable: MIC Escherichia coli (GC 4559)
result: >64 µg/mL
--
compound: COc1ccc(Oc2cccc(C3OCC4OC(OC5C(CO)OC(Oc6ccc(CC7NC(=O)C(C(C)c8ccccc8)NC(=O)CNC(=O)C(CO)NC(=O)C(C(O)C8CNC(=N)N8C8OC(CO)C(O)C(O)C8O)NC(=O)C(C(O)C8CNC(=N)N8)NC7=O)cc6)C(O)C5O)C(O)C(O)C4O3)c2)cc1 (stereo not shown)
observable: MIC Escherichia coli (GC 4559)
result: 64 µg/mL

Okay, next one:
Any idea what its MIC Escherichia coli (GC 4559) is? The compound is CC(c1ccccc1)C1NC(=O)CNC(=O)C(CO)NC(=O)C(C(O)C2CNC(=N)N2C2OC(CO)C(O)C(O)C2O)NC(=O)C(C(O)C2CNC(=NC(=O)C(C)(C)C)N2)NC(=O)C(Cc2ccc(OC3OC(CO)C(OC4OC(CO)C(O)C(O)C4O)C(O)C3O)cc2)NC1=O (stereo not shown)
>64 µg/mL

---

Parameter: MIC Escherichia coli (GC 4560). Scope: all listed entries.
system: Escherichia coli; assay: in vitro antibacterial evaluation, MIC by broth dilution; type: cell-based; settings: 18 hours at 35° C.

Look over these answered cases.
compound: CC(c1ccccc1)C1NC(=O)CNC(=O)C(CO)NC(=O)C(C(O)C2CN(Cc3ccc(C(F)(F)F)cc3)C(=N)N2C2OC(CO)C(O)C(O)C2O)NC(=O)C(C(O)C2CNC(=N)N2)NC(=O)C(Cc2ccc(OC3OC(CO)C(OC4OC5COC6(OC5C(O)C4O)C4CC5CC(C4)CC6C5)C(O)C3O)cc2)NC1=O (centres unmarked) [Example 226]
experimentalTarget: Escherichia coli
MIC Escherichia coli (GC 4560): 4 µg/mL
--
compound: CC(c1ccccc1)C1NC(=O)CNC(=O)C(CO)NC(=O)C(C(O)C2CNC(=N)N2C2OC(CO)C(O)C(O)C2O)NC(=O)C(C(O)C2CNC(=N)N2)NC(=O)C(Cc2ccc(OC3OC(CO)C(OC4OC5COC6(CC7CCC6(C)C7(C)C)OC5C(O)C4O)C(O)C3O)cc2)NC1=O (centres unmarked) [Example 215]
experimentalTarget: Escherichia coli
MIC Escherichia coli (GC 4560): 1 µg/mL
--
compound: CC(C)=CCCC(C)=CCCC(C)=CCOc1cccc(C2OCC3OC(OC4C(CO)OC(Oc5ccc(CC6NC(=O)C(C(C)c7ccccc7)NC(=O)CNC(=O)C(CO)NC(=O)C(C(O)C7CNC(=N)N7C7OC(CO)C(O)C(O)C7O)NC(=O)C(C(O)C7CNC(=N)N7)NC6=O)cc5)C(O)C4O)C(O)C(O)C3O2)c1 (centres unmarked) [Example 185]
experimentalTarget: Escherichia coli
MIC Escherichia coli (GC 4560): >64 µg/mL
--
compound: CC(C1CCCCC1)C1NC(=O)CNC(=O)C(CO)NC(=O)C(C(O)C2CNC(=N)N2C2OC(CO)C(O)C(O)C2O)NC(=O)C(C(O)C2CNC(=N)N2)NC(=O)C(Cc2ccc(OC3OC(CO)C(OC4OC5COC6(OC5C(O)C4O)C4CC5CC(C4)CC6C5)C(O)C3O)cc2)NC1=O (centres unmarked) [Example 221]
experimentalTarget: Escherichia coli
MIC Escherichia coli (GC 4560): 2 µg/mL
--
compound: CC(c1ccccc1)C1NC(=O)CNC(=O)C(CO)NC(=O)C(C(O)C2CN(Cc3ccccc3-c3ccccc3)C(=N)N2C2OC(CO)C(O)C(O)C2O)NC(=O)C(C(O)C2CNC(=N)N2)NC(=O)C(Cc2ccc(OC3OC(CO)C(OC4OC(CO)C(O)C(O)C4O)C(O)C3O)cc2)NC1=O (centres unmarked) [Example 65]
experimentalTarget: Escherichia coli
MIC Escherichia coli (GC 4560): 32 µg/mL
--
compound: CCCCCCC(=O)OCC1OC(OC2C(CO)OC(Oc3ccc(CC4NC(=O)C(C(C)c5ccccc5)NC(=O)CNC(=O)C(CO)NC(=O)C(C(O)C5CNC(=N)N5C5OC(CO)C(O)C(O)C5O)NC(=O)C(C(O)C5CNC(=N)N5)NC4=O)cc3)C(O)C2O)C(O)C(O)C1O (centres unmarked) [Example 97b]
experimentalTarget: Escherichia coli
MIC Escherichia coli (GC 4560): 1 µg/mL

Any idea what its MIC Escherichia coli (GC 4560) is? The compound is CCCCCC(=O)OCC1OC(N2C(=N)NCC2C(O)C2NC(=O)C(C(O)C3CNC(=N)N3)NC(=O)C(Cc3ccc(OC4OC(CO)C(OC5OC(CO)C(O)C(O)C5O)C(O)C4O)cc3)NC(=O)C(C(C)c3ccccc3)NC(=O)CNC(=O)C(CO)NC2=O)C(O)C(O)C1O (centres unmarked) [Example 95]
8 µg/mL

And what about the compound CN=C1N(C)CC(CC2NC(=O)C(Cc3ccc(OC4OC(CO)C(OC5OC(CO)C(O)C(O)C5O)C(O)C4O)cc3)NC(=O)C(C(C)c3ccccc3)NC(=O)CNC(=O)C(CO)NC(=O)C(CC3CN(C)C(=NC)N3C3OC(CO)C(O)C(O)C3O)NC2=O)N1C (centres unmarked) [Example 74] ?
>128 µg/mL

And what about the compound CC(c1ccccc1)C1NC(=O)CNC(=O)C(CO)NC(=O)C(C(O)C2CN(c3ncccn3)C(=N)N2C2OC(CO)C(O)C(O)C2O)NC(=O)C(C(O)C2CNC(=Nc3ncccn3)N2)NC(=O)C(Cc2ccc(OC3OC(CO)C(OC4OC(CO)C(O)C(O)C4O)C(O)C3O)cc2)NC1=O (centres unmarked) [Example 92] ?
>128 µg/mL

And what about the compound CC(c1ccccc1)C1NC(=O)CNC(=O)C(CO)NC(=O)C(C(O)C2CNC(=N)N2C2OC(CO)C(O)C(O)C2O)NC(=O)C(C(O)C2CNC(=N)N2)NC(=O)C(Cc2ccc(OC3OC(CO)C(OC4OC5COC(c6ccccc6)OC5C(O)C4O)C(O)C3O)c(I)c2)NC1=O (centres unmarked) [Example 196] ?
8 µg/mL

And what about the compound CN=C1N(C)CC(C(O)C2NC(=O)C(Cc3ccc(OC4OC(CO)C(OC5OC(CO)C(O)C(O)C5O)C(O)C4O)cc3)NC(=O)C(C(C)c3ccccc3)NC(=O)CNC(=O)C(CO)NC(=O)C(C(O)C3CN(C)C(=NC)N3C3OC(CO)C(O)C(O)C3O)NC2=O)N1C (centres unmarked) [Example 64] ?
>128 µg/mL

And what about the compound CC(c1ccccc1)C1NC(=O)CNC(=O)C(CO)NC(=O)C(CC2CNC(=N)N2C2OC(CO)C(O)C(O)C2O)NC(=O)C(CC2CNC(=N)N2)NC(=O)C(Cc2ccc(OC3OC(CO)C(OC4OC5COC6(OC5C(O)C4O)C4CC5CC(C4)CC6C5)C(O)C3O)cc2)NC1=O (centres unmarked) [Example 219] ?
4 µg/mL

And what about the compound CC(C1CCCCC1)C1NC(=O)CNC(=O)C(CO)NC(=O)C(C(O)C2CNC(=N)N2C2OC(CO)C(O)C(O)C2O)NC(=O)C(C(O)C2CNC(=N)N2)NC(=O)C(Cc2ccc(OC3OC(CO)C(OC4OC5COC(c6ccccc6)OC5C(O)C4O)C(O)C3O)cc2)NC1=O (centres unmarked) [Example 201] ?
0.25 µg/mL

And what about the compound CC(c1ccccc1)C1NC(=O)CNC(=O)C(CO)NC(=O)C(C(O)C2CN(Cc3ccc(C(=O)O)cc3)C(=N)N2C2OC(CO)C(O)C(O)C2O)NC(=O)C(C(O)C2CNC(=N)N2)NC(=O)C(Cc2ccc(OC3OC(CO)C(OC4OC(CO)C(O)C(O)C4O)C(O)C3O)cc2)NC1=O (centres unmarked) [Example 69] ?
>128 µg/mL
